// values below are reported apparent KD of MS2 coat protein
tested on: MS2 coat protein; test: apparent KD of MS2 coat protein; higher = weaker reporter binding; settings: Eterna round: R107; input ligand: theophylline 2 mM
Your answer is read as µM, so omit the unit and give the number.

Example entries and their recorded answers appear below.
Measured apparent KD of MS2 coat protein, GCCGGGCCCUCGGCCGCCACUGAGAGAGUCGUGUGAACAUGAGGAUCACCCAUGUAAUAUAUAUACAGGACCGGGAGGGCCCGGC [4.W] : 0.0139

Measured apparent KD of MS2 coat protein, AACAUGAGGAUCACCCAUGUCUGAACUGAAGGAGCGCUAAACAAGGCAGGUAGGUCGCGGAAUUUUGUGUGCAUAUGCAUAUGGG [9.J] : 0.0296

Measured apparent KD of MS2 coat protein, GCACAUGAGGAUCACCCAUGUACAACUGAAGGAGCGAGACAGAACUCAGGUAGGUCGCAGAAUGCACAAUAGCAUACGACAUGGG [Exclusion Arginine A GF20] : 0.0238

Measured apparent KD of MS2 coat protein, GGUGGACUUUCGGCCGCCACUGAGAGAGUCGUGUGAACAUGAGGAUCACCCAUGUAAUAUAUAUACAGGACCGGGAGGGUUGUCC [4.O] : 0.025

Measured apparent KD of MS2 coat protein, AUUAAUAAUAUGUAGACGGCGGAGAAGAGACGAGGACCGGUACGGCCGCCACUCGUGUUAGUUAACAUGAGGAUCACCCAUGUUA [#09 Tryptophan A Same State] : 0.0126

Please find the next sequence below.
Measured apparent KD of MS2 coat protein, GCUGCCAUACGAAGGAGCGCUGGUGUAAUGAGGCGAACAUGAGGAUCACCCAUGUGGCAGAAGCAGGUAGGUCGCGUAUGGCAGC [EAB #15] : 0.0149
